# Test system: LXRa:RXRa (NR concentration 270 nM, RXRa partner concentration 90 nM)
# test_details: PBM binding z-score (relative to random genomic background probes); higher = stronger binding; sequences stand for … in GC…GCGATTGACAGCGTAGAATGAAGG
observation_type: PBM binding z-score
Answer with the value's number alone.

Some sequences with known PBM binding z-score results, for comparison:
CTATGTAGGTTAACGGGGTCATTCAGTTTGAAAG    5.6
CCTAGTTGGTCAAGGTAACACACGCTATAGGTAC    0.459
AGTCAAAGTTCATCTAGGTAACGAAAGATATGCT    5.78
CCCACTGGGCCATTCAGAGGTCATTGATCATATG    4.33
CAATCTAGGTCACGAAAGGTCAAAGTCGAATGAC    8.36

Next:
Please report the measured PBM binding z-score for CGAACTAGTTCAAGGACAGTGAATCTCCGCACGC tested on LXRa:RXRa (NR concentration 270 nM, RXRa partner concentration 90 nM). 0.229
